// endpoint IC50 / system UniProt O14920
Sequence (O14920 whole entry): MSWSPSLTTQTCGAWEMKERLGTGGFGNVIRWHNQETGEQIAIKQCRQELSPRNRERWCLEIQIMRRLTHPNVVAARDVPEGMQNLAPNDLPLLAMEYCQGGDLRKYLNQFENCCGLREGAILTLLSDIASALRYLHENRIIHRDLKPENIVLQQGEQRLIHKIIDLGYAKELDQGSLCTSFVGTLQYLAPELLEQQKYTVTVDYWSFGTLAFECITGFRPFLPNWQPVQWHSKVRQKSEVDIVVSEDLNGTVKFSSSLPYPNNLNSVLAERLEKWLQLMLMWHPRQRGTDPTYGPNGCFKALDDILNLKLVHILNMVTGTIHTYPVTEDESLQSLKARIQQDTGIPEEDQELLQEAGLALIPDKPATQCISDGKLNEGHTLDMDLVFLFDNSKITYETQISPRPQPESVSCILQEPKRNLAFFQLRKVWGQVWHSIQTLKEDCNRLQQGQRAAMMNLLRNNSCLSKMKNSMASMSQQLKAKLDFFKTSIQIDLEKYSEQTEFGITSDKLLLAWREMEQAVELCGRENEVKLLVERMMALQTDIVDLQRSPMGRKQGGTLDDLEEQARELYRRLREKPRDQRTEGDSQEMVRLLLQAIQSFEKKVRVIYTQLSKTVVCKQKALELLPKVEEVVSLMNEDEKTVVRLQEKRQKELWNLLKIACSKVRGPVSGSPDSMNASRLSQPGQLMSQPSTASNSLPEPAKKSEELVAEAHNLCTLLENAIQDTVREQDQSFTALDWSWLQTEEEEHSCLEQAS
# value in nM; strip the unit string

Provide IC50 value for the following compound: COc1cc(-c2ccnc3[nH]ccc23)ccc1NC(=O)[C@H](N)CC(C)C
829

Determine from records and report IC50 for CC(C)C[C@@H](N)C(=O)Nc1ccc(-c2ccnc3[nH]ccc23)cc1
111

* * *

# assaySystem: Mnk2 (Homo sapiens (Human), UniProt Q9HBH9)
# Sequence (Q9HBH9 whole entry): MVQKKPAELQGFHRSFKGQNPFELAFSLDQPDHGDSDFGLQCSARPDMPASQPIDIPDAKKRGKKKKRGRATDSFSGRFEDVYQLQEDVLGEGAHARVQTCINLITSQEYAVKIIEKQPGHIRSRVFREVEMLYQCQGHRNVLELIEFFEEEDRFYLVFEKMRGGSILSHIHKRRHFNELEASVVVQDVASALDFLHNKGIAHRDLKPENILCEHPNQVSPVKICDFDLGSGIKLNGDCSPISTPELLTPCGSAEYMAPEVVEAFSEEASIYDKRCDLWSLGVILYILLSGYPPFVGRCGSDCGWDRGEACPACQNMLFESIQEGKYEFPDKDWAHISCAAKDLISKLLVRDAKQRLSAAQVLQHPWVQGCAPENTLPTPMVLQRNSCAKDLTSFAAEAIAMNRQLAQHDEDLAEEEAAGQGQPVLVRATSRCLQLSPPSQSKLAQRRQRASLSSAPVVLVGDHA
metricName: IC50 (nM)
# output: bare number, implied unit nM

Report IC50, nothing else, for this molecule: Cc1cc2c(-c3ccc(NC(=O)[C@H](N)CC(C)(C)C)cc3C)ccnc2[nH]1
2180

* * *

# assaySystem: UniProt:O14578
# method: Radiometric citron kinase assay (Eurofins Cat #16-040KP)
# Type: biochemical
# testConditions: mean of at least two independent assays; read-out: Radiometric CitK IC50
metricName: IC50 (nM)
Value expressed in nM; do not type the unit.

Provide one value: measured IC50 of Cc1cc(NC(=O)[C@H](N)CC(C)C)ccc1-c1ccnc2[nH]c(C(F)F)cc12
18.1

Give the reported value of IC50 for this record: Cc1cc2c(-c3csc(NC(=O)C(N)C4(C(F)(F)F)CC4)n3)ccnc2[nH]1 (stereo not shown)
129

Determine its reported IC50: COc1cc(NC(=O)[C@H](N)CC(C)(C)C)cnc1-c1ccnc2[nH]c(C)cc12
3000

Please report the measured IC50 for COc1cc(NC(=O)[C@H](N)Cc2ccccc2)ccc1-c1ccnc2[nH]ccc12
598

Query IC50 for N[C@H](Cc1ccccc1)C(=O)Nc1ccc(-c2ccnc3[nH]ccc23)c(C(F)(F)F)c1
1420

Provide one value: measured IC50 of COCCC(N)C(=O)Nc1ccc(-c2ccnc3[nH]ccc23)cc1 (stereo not shown)
2470

Look up IC50 of Cc1cc(NC(=O)[C@H](N)CC(C)(C)C)ccc1-c1ccnc2[nH]c(C(F)F)cc12 and report it.
11.7

Query IC50 for CC(C)(O)[C@@H](N)C(=O)Nc1ccc(-c2ccnc3[nH]ccc23)cc1
52.4

Kindly indicate its recorded IC50. Item: Cc1cc2c(-c3ccc(NC(=O)[C@H](N)C(C)(C)F)cc3C)ccnc2[nH]1
461

Supply reported IC50 belonging to this compound: Cc1cc2c(-c3ccc(NC(=O)[C@H](N)CC(C)(C)C)cc3C(F)F)ccnc2[nH]1
29.3

Give the measured IC50 for Cc1cc2c(-c3ccc(NC(=O)[C@H](N)CC(C)(C)C)cc3OC(F)F)ccnc2[nH]1
53

Identify measured IC50 corresponding to CNCC(=O)Nc1ccc(-c2ccnc3[nH]ccc23)cc1
728

Identify IC50 associated with the compound Cc1cc2c(-c3ccc(NC(=O)[C@H](N)CC(C)(C)C)cc3)ccnc2[nH]1
9.1

Identify measured IC50 associated with COc1nc(-c2ccnc3[nH]c(C(F)(F)F)cc23)ccc1NC(=O)[C@H](N)CC(C)(C)C
38

Provide only the value of recorded IC50 for CC(C)C[C@@H](NC1CC1)C(=O)Nc1ccc(-c2ccnc3[nH]ccc23)cc1
555

Return the recorded IC50 value; entry: CCc1cc(NC(=O)[C@H](N)C(C)(C)C)ccc1-c1ccnc2[nH]ccc12
57.5

* * *

AUR-B (Homo sapiens (Human), UniProt Q96GD4): reported IC50 for various compounds.
Sequence (Q96GD4 whole entry): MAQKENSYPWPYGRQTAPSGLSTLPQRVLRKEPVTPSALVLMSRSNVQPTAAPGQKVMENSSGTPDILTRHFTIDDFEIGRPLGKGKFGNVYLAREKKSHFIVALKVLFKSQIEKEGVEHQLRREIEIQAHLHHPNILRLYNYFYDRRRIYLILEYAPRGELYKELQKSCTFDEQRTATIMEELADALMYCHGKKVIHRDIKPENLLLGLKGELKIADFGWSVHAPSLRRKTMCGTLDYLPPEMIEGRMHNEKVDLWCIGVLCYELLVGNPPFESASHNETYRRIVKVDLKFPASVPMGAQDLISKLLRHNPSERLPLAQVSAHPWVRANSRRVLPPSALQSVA
Expressed in nM, but write only the number.

Using known records, supply IC50 for CC(C)C[C@@H](N)C(=O)Nc1ccc(-c2ccnc3[nH]ccc23)cc1 [Compound F-9]
230

Output measured IC50 for this item: N[C@H](Cc1ccccc1)C(=O)Nc1ccc(-c2ccnc3[nH]ccc23)cc1 [Compound F-33]
104

* * *

# assaySystem: Citron kinase (Homo sapiens (Human), UniProt O14578)
# Sequence (O14578 whole entry): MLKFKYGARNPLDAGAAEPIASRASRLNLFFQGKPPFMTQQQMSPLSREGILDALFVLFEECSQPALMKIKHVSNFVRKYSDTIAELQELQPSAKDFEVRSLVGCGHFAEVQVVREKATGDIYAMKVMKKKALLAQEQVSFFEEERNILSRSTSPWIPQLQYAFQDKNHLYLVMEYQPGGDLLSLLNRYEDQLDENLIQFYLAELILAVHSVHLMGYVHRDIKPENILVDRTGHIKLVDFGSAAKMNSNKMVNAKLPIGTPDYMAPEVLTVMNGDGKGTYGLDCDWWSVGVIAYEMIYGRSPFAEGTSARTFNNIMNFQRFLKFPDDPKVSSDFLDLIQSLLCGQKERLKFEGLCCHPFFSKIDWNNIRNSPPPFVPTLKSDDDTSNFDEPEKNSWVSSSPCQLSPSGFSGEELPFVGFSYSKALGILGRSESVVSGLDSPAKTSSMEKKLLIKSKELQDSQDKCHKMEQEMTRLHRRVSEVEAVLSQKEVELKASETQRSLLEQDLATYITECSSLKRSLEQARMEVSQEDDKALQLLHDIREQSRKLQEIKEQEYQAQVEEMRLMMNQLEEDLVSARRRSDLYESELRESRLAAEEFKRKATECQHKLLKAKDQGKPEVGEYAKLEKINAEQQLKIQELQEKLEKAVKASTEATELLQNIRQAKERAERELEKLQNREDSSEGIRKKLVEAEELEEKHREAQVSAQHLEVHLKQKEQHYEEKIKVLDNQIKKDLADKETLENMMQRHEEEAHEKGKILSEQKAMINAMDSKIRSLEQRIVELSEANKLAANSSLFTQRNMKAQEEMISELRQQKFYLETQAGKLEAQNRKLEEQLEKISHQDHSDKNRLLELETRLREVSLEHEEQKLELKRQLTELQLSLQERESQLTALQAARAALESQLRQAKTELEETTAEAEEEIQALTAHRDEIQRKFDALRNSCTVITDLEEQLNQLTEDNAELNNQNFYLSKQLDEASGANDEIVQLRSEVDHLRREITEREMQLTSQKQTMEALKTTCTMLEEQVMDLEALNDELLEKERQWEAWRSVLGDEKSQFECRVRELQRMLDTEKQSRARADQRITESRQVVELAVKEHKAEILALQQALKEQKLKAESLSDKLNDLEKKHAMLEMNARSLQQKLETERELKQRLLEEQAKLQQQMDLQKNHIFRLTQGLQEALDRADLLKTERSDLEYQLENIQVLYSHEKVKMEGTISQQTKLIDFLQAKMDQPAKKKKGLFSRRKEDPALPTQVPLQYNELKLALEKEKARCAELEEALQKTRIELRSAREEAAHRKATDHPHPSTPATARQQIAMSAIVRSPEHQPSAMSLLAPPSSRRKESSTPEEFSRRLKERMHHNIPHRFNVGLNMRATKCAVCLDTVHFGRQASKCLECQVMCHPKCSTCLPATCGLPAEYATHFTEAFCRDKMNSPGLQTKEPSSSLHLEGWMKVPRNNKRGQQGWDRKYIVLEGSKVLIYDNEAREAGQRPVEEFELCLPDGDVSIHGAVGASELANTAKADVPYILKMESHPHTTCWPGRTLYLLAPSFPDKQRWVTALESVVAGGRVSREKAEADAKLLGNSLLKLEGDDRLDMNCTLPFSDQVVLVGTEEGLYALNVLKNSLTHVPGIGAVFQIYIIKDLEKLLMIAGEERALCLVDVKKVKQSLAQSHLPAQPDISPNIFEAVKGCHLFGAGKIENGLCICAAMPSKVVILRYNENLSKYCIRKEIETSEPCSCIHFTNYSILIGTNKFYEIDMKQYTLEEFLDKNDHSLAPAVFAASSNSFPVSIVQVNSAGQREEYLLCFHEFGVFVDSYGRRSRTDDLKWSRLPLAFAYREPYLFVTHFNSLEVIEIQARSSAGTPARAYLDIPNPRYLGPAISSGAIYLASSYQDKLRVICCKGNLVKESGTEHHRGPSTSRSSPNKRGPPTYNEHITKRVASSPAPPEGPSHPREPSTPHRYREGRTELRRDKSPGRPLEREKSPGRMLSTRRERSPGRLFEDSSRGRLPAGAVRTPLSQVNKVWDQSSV
# method: Radiometric citron kinase assay (Eurofins Cat #16-040KP)
# Type: biochemical
# testConditions: mean of at least two independent assays; read-out: Radiometric CitK IC50
metricName: IC50 (nM)
Unit nM implied. Number only.

Tell me its IC50 given CC(O)[C@H](N)C(=O)Nc1ccc(-c2ccnc3[nH]ccc23)cc1 (some centres unmarked) as the entry.
778

Using the record for COc1cc(NC(=O)[C@H](N)CC(C)(C)C)ccc1-c1ccnc2[nH]c(C)cc12 , state its measured IC50.
50

Let me know recorded IC50 for CC(C)(C)C[C@@H](N)C(=O)Nc1ccc(-c2ccnc3[nH]c(C(F)(F)F)cc23)cc1 , thanks.
22

Read off the recorded IC50 for Cc1cc(NC(=O)[C@H](N)C(C)(C)O)ccc1-c1ccnc2[nH]c(C(F)F)cc12
151

Give the reported IC50 for this compound. CC(C)(C)C[C@@H](N)C(=O)Nc1ccc(-c2ccnc3[nH]c(C(F)F)cc23)nc1
266

Provide measured IC50 value, entry: Cc1cc2c(-c3csc(NC(=O)[C@H](N)C(C)C)n3)ccnc2[nH]1
244

Annotate the compound COc1cccc(C[C@@H](N)C(=O)Nc2ccc(-c3ccnc4[nH]c(C)cc34)c(C)c2)c1 with its measured IC50.
519

Tell me IC50 reported for Cc1c(-c2ccnc3[nH]ccc23)ccc(NC(=O)[C@H](N)C(C)(C)C)c1F
23.1

Return the recorded IC50 value; entry: CN[C@H](CC(C)C)C(=O)Nc1ccc(-c2ccnc3[nH]c(C)cc23)cc1
43.7

Input Cc1cc(NC(=O)[C@H](N)CC(C)(C)C)ccc1-c1ccnc2[nH]ccc12 , output reported IC50.
7.8

Supply reported IC50 belonging to this compound: COCCN[C@H](CC(C)C)C(=O)Nc1ccc(-c2ccnc3[nH]ccc23)cc1
1260

Write down IC50 measured for item Cc1cc2c(-c3nc(NC(=O)[C@H](N)C(C)(C)C)sc3C)ccnc2[nH]1
3000

Tell me measured IC50 for COc1nc(-c2ccnc3[nH]c(C)cc23)ccc1NC(=O)[C@H](N)CC(C)(C)C please.
18

Determine its reported IC50: COc1nc(-c2ccnc3[nH]c(C(F)F)cc23)ccc1NC(=O)[C@H](N)CC(C)(C)C
9

Identify IC50 associated with the compound Cc1cc2c(-c3ccc(NC(=O)[C@@H](N)C(C)(C)O)cc3C)ccnc2[nH]1
852

Read off the recorded IC50 for Cc1cc2c(-c3ccc(NC(=O)[C@H](N)C(C)(C)C)cc3)ccnc2[nH]1
59

Retrieve IC50 measured for CC(C)C[C@@H](N)C(=O)Nc1ccc(-c2ccnc3[nH]ccc23)cc1C(F)(F)F and print it.
316

* * *

Provide the recorded IC50 for the entries that follow.

Report its IC50 with ROCK-2 (Homo sapiens (Human)) as the test system: Cc1cc2c(-c3ccc(NC(=O)[C@H](N)C(C)(C)O)cc3C)ccnc2[nH]1 [Compound F-140]
Sequence (O75116 whole entry): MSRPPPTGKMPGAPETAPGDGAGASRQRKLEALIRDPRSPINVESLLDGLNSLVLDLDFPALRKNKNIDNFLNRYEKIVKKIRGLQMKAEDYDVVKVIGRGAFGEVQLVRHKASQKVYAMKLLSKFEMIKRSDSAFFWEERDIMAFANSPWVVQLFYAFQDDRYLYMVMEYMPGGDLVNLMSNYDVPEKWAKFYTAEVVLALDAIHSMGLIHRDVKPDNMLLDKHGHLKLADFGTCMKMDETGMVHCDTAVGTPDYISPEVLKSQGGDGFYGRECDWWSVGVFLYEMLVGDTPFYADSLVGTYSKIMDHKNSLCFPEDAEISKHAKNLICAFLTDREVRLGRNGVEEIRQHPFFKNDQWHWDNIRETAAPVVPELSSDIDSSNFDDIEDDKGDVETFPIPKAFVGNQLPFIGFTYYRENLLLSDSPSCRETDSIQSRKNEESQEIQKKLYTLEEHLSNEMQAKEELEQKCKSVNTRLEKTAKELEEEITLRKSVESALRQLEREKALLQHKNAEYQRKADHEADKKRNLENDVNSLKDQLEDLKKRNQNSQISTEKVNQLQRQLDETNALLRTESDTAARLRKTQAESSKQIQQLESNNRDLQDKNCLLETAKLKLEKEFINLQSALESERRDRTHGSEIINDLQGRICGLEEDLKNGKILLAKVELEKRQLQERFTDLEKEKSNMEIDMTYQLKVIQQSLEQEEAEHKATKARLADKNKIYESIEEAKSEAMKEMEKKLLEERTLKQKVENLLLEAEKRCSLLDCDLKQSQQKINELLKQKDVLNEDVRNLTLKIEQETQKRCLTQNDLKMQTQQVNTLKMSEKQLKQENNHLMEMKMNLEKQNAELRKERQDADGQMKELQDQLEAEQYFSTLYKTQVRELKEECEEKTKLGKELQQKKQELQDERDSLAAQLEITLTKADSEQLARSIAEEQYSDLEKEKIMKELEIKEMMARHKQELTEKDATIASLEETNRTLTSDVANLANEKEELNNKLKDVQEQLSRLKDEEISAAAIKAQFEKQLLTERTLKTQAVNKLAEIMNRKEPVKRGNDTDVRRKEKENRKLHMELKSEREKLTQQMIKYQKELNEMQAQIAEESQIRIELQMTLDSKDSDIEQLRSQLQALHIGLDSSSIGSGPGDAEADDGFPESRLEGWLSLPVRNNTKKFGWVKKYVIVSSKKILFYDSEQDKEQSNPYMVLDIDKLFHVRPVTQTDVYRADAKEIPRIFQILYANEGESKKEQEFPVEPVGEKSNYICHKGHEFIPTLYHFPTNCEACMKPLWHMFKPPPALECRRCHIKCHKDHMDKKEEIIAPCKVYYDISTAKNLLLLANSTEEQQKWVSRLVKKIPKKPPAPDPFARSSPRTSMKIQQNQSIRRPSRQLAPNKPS
> 3 µM

Give IC50; test system ROCK-2 (Homo sapiens (Human)); compound Cc1cc2c(-c3ccc(NC(=O)[C@H](N)CC(C)(C)C)cc3C)ccnc2[nH]1 [Compound F-90]
> 3 µM

Report IC50 under test system ROCK-2 (Homo sapiens (Human)) for Cc1cc2c(-c3ccc(NC(=O)[C@H](N)CC(C)C)cc3)ccnc2[nH]1 [Compound F-48] .
> 3 µM

* * *

# assaySystem: Citron kinase (Homo sapiens (Human), UniProt O14578)
# method: Radiometric citron kinase assay (Eurofins Cat #16-040KP)
# Assay type: biochemical
# testConditions: mean of at least two independent assays; read-out: Radiometric CitK IC50
For each record, write down the corresponding IC50.
The reply should be a number in nM, with the unit left off.

Report IC50, nothing else, for this compound: CC(C)(C)[C@@H](N)C(=O)Nc1nc(-c2ccnc3[nH]ccc23)cs1
29.6

Give the measured IC50 for CC(C)(C)C[C@@H](N)C(=O)Nc1ccc(-c2ccnc3[nH]c(C(F)(F)F)cc23)cn1
307

Respond only with IC50 recorded for Cc1nc(NC(=O)[C@H](N)CC(C)(C)C)ccc1-c1ccnc2[nH]c(C(F)F)cc12
120

// fetch IC50 given entry N[C@H](CCC(F)(F)F)C(=O)Nc1ccc(-c2ccnc3[nH]ccc23)cc1
66.7

* * *

Entries with their measured IC50, system PKAα (Homo sapiens (Human)):

Look up and report IC50, with PKAα (Homo sapiens (Human)) as system, for Cc1cc2c(-c3ccc(NC(=O)[C@H](N)CC(C)C)cc3)ccnc2[nH]1
> 3 µM

Give IC50 only, for Cc1cc2c(-c3ccc(NC(=O)[C@H](N)CC(C)(C)C)cc3C)ccnc2[nH]1 , using PKAα (Homo sapiens (Human)) data.
> 3 µM

Look up and report IC50, with PKAα (Homo sapiens (Human)) as system, for Cc1cc2c(-c3ccc(NC(=O)[C@H](N)C(C)(C)O)cc3C)ccnc2[nH]1
> 3 µM
